These measurements were taken from paper PMC8776995.

test system: H460 cells; assay: CCK-8 antiproliferation assay, H460; conditions: Homo sapiens, NCI-H460, read-out: Inhibitory efficacy, H460 cells; 8uM; given as fraction; Repeat 1-3
Response field class: enum, chosen by comparing inhibition at 8 µM against low (below 50%), moderate (50% to below 60%), high (60% or more)

{"MOLECULE": "COCCOc1cc2ncnc(Nc3cccc(-c4cn(Cc5ccccc5I)nn4)c3)c2cc1OCCOC [e2]", "ASSIGNED_LABEL": "low"}
{"MOLECULE": "COCCOc1cc2ncnc(Nc3cccc(-c4cn(-c5ccc(C)cc5)nn4)c3)c2cc1OCCOC [e12]", "ASSIGNED_LABEL": "high"}
{"MOLECULE": "COCCOc1cc2ncnc(Nc3cccc(-c4cn(Cc5cc(Br)cc(Br)c5)nn4)c3)c2cc1OCCOC [e4]", "ASSIGNED_LABEL": "high"}
{"MOLECULE": "COCCOc1cc2ncnc(Nc3cccc(-c4cn(-c5cccc([N+](=O)[O-])c5)nn4)c3)c2cc1OCCOC [e13]", "ASSIGNED_LABEL": "moderate"}
{"MOLECULE": "COCCOc1cc2ncnc(Nc3cccc(-c4cn(-c5ccccc5OC)nn4)c3)c2cc1OCCOC [e11]", "ASSIGNED_LABEL": "high"}

Returns: class label. Input: COCCOc1cc2ncnc(Nc3cccc(-c4cn(-c5ccc(OC)cc5OC)nn4)c3)c2cc1OCCOC [e17]
high

* * *

Each entry below carries its recorded inhibition at 0.03 µM.
biological target: wild-type EGFR (Homo sapiens); assay: EGFR kinase assay (ELISA); conditions: concentration 30 nM; one value per replicate column

// solved cases for inhibition at 0.03 µM follow
{"MOLECULE": "COCCOc1cc2ncnc(Nc3cccc(-c4cn(-c5ccc(Br)cc5)nn4)c3)c2cc1OCCOC", "OBSERVED": "21.1%"}
{"MOLECULE": "COCCOc1cc2ncnc(Nc3cccc(-c4cn(-c5ccc(OC)cc5OC)nn4)c3)c2cc1OCCOC", "OBSERVED": "18.2%"}

With wild-type EGFR (Homo sapiens) as the test system, COCCOc1cc2ncnc(Nc3cccc(-c4cn(Cc5ccccc5)nn4)c3)c2cc1OCCOC [e1] showed inhibition at 0.03 µM of 28%

Bench note, wild-type EGFR (Homo sapiens): entry `COCCOc1cc2ncnc(Nc3cccc(-c4cn(-c5ccccc5)nn4)c3)c2cc1OCCOC` , its inhibition at 0.03 µM = 44.4%

Record `COCCOc1cc2ncnc(Nc3cccc(-c4cn(-c5ccc(OC)c(OC)c5)nn4)c3)c2cc1OCCOC` ; system wild-type EGFR (Homo sapiens); inhibition at 0.03 µM = 6.35%

* * *

Some compounds, each annotated with its measured inhibition at 1 µM.
tested on: H460 cells; test: CCK-8 antiproliferation assay, H460; settings: Homo sapiens, NCI-H460, read-out: Inhibitory efficacy, H460 cells; 1uM; given as fraction; Repeat 1-3
Quick note: give the figure in %, leave out the unit.

Reported inhibition at 1 µM of C#Cc1cccc(Nc2ncnc3cc(OCCOC)c(OCCOC)cc23)c1 [Erlotinib, reference compound] : 6.64

Reported inhibition at 1 µM ( COCCOc1cc2ncnc(Nc3cccc(-c4cn(Cc5cc(Br)cc(Br)c5)nn4)c3)c2cc1OCCOC [e4] ) = 19.4

* * *

tested on: A549 cells; assay: CCK-8 antiproliferation assay, A549; details: read-out: IC50 (μM) A549; CCK-8, 48 h, average ± SD of three independent experiments
The entries below are paired with their reported IC50.
# output: bare number, implied unit µM

{"MOLECULE": "COCCOc1cc2ncnc(Nc3cccc(-c4cn(Cc5cc(Br)cc(Br)c5)nn4)c3)c2cc1OCCOC [e4]", "IC50 [µM]": 5.8}

Could you now look at the following molecule, please?
Known value: A549 cells IC50 of the molecule COCCOc1cc2ncnc(Nc3cccc(-c4cn(-c5ccc(C)cc5)nn4)c3)c2cc1OCCOC [e12] equals 5.91

* * *

biological target: wild-type EGFR (Homo sapiens, UniProt P00533); test: EGFR kinase assay (ELISA); conditions: concentration 3 nM; one value per replicate column
Sequence (P00533 25-1210): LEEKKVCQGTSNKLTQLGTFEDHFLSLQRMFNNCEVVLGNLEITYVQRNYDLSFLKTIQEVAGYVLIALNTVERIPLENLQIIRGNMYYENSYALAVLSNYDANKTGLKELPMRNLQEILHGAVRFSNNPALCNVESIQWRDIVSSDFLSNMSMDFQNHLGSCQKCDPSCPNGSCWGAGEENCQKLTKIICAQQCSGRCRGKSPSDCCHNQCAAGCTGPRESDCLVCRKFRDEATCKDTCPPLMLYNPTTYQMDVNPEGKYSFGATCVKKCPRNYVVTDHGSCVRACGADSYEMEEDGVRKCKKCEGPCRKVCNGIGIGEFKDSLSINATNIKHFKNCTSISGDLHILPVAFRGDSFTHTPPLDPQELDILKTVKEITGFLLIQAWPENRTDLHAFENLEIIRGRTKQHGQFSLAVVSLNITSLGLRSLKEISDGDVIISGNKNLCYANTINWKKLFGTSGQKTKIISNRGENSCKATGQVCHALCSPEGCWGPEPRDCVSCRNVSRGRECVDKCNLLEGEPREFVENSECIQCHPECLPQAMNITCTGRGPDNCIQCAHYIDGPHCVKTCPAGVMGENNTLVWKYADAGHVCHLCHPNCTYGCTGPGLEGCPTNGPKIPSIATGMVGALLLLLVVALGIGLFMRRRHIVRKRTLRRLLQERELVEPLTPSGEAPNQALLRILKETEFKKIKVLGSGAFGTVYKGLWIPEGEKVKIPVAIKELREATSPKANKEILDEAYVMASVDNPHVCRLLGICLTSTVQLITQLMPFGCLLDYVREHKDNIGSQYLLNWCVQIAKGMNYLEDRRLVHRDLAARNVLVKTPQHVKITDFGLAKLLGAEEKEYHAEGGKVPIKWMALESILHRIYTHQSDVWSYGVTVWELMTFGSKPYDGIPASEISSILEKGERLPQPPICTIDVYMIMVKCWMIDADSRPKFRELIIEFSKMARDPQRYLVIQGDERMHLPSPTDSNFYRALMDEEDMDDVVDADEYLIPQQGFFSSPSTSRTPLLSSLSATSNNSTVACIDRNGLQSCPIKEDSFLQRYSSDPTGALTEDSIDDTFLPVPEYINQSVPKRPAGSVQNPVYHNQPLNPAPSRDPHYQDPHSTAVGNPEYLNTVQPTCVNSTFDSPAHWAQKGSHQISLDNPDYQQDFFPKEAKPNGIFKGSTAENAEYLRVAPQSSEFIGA
I would appreciate it if you labelled entries Criterion met when inhibition at 0.003 µM is 20% or higher, otherwise Criterion not met.

{"COMPOUND": "COCCOc1cc2ncnc(Nc3cccc(-c4cn(-c5ccc(C)cc5)nn4)c3)c2cc1OCCOC [e12]", "ASSIGNED_LABEL": "Criterion not met"}
{"COMPOUND": "COCCOc1cc2ncnc(Nc3cccc(-c4cn(Cc5ccccc5Br)nn4)c3)c2cc1OCCOC [e3]", "ASSIGNED_LABEL": "Criterion not met"}
{"COMPOUND": "COCCOc1cc2ncnc(Nc3cccc(-c4cn(-c5ccc(Br)cc5)nn4)c3)c2cc1OCCOC [e10]", "ASSIGNED_LABEL": "Criterion not met"}
{"COMPOUND": "COCCOc1cc2ncnc(Nc3cccc(-c4cn(Cc5ccccc5)nn4)c3)c2cc1OCCOC [e1]", "ASSIGNED_LABEL": "Criterion not met"}

I'd appreciate it if you could say whether COCCOc1cc2ncnc(Nc3cccc(-c4cn(Cc5cc(Br)cc(Br)c5)nn4)c3)c2cc1OCCOC [e4] has inhibition at 0.003 µM at least equal to 20%.
Criterion not met

Please tell me: is the compound COCCOc1cc2ncnc(Nc3cccc(-c4cn(-c5ccccc5OC)nn4)c3)c2cc1OCCOC [e11] at or over 20% in terms of inhibition at 0.003 µM?
Criterion not met

Check if inhibition at 0.003 µM >= 20% (inclusive). Item: COCCOc1cc2ncnc(Nc3cccc(-c4cn(-c5ccc(C)cc5O)nn4)c3)c2cc1OCCOC [e18]
Criterion not met

# check: inhibition at 0.003 µM of COCCOc1cc2ncnc(Nc3cccc(-c4cn(-c5ccc(OC)c(OC)c5)nn4)c3)c2cc1OCCOC [e19] is greater than or equal to 20%
Criterion not met

* * *

IC50 values for the compounds below.
target: wild-type EGFR (Homo sapiens, UniProt P00533); assay: EGFR kinase assay (ELISA); conditions: IC50 (μM) EGFR, ELISA, 3 μmol/L ATP
// return numeric value only (unit: µM, not printed)

// worked examples, IC50 included
{"COMPOUND": "COCCOc1cc2ncnc(Nc3cccc(-c4cn(Cc5ccccc5)nn4)c3)c2cc1OCCOC [e1]", "IC50 [µM]": 1.34}
{"COMPOUND": "COCCOc1cc2ncnc(Nc3cccc(-c4cn(Cc5ccccc5I)nn4)c3)c2cc1OCCOC [e2]", "IC50 [µM]": 0.32}
{"COMPOUND": "COCCOc1cc2ncnc(Nc3cccc(-c4cn(-c5ccccc5C(F)(F)F)nn4)c3)c2cc1OCCOC", "IC50 [µM]": 32.5}
{"COMPOUND": "COCCOc1cc2ncnc(Nc3cccc(-c4cn(-c5ccccc5)nn4)c3)c2cc1OCCOC", "IC50 [µM]": 0.09}

`COCCOc1cc2ncnc(Nc3cccc(-c4cn(-c5ccc(OC)c(OC)c5)nn4)c3)c2cc1OCCOC` has a reported IC50 of 28.1

Entry `CCOc1cccc(-n2cc(-c3cccc(Nc4ncnc5cc(OCCOC)c(OCCOC)cc45)c3)nn2)c1` — recorded IC50 = 10.7

Recorded IC50 (compound `COCCOc1cc2ncnc(Nc3cccc(-c4cn(-c5ccccc5Cl)nn4)c3)c2cc1OCCOC` ): 1.99

The recorded IC50 for `COCCOc1cc2ncnc(Nc3cccc(-c4cn(-c5ccc(C)cc5)nn4)c3)c2cc1OCCOC` is 1.76

IC50 reading for `COCCOc1cc2ncnc(Nc3cccc(-c4cn(Cc5ccccc5Br)nn4)c3)c2cc1OCCOC` : 68

Per the records, this compound ( `COCCOc1cc2ncnc(Nc3cccc(-c4cn(-c5ccccc5OC)nn4)c3)c2cc1OCCOC` ) has IC50 equal to 49.4

The recorded IC50 for entry `COCCOc1cc2ncnc(Nc3cccc(-c4cn(-c5ccc(F)cc5)nn4)c3)c2cc1OCCOC` equals 14.7

IC50 reported for this compound `COCCOc1cc2ncnc(Nc3cccc(-c4cn(-c5ccc(OC)cc5OC)nn4)c3)c2cc1OCCOC` : 15.5

For `COCCOc1cc2ncnc(Nc3cccc(-c4cn(-c5ccc(Br)cc5)nn4)c3)c2cc1OCCOC` the compound record lists IC50 as 2.13

Lab note: measured IC50 of `COCCOc1cc2ncnc(Nc3cccc(-c4cn(-c5cccc([N+](=O)[O-])c5)nn4)c3)c2cc1OCCOC` was 4.74

The compound listed as `COCCOc1cc2ncnc(Nc3cccc(-c4cn(-c5ccccc5F)nn4)c3)c2cc1OCCOC` has a reported IC50 of 0.69

Recorded result, `COCCOc1cc2ncnc(Nc3cccc(-c4cn(-c5ccccc5Br)nn4)c3)c2cc1OCCOC` , IC50: 3.83

Reported IC50 ( `COCCOc1cc2ncnc(Nc3cccc(-c4cn(CCc5ccccc5)nn4)c3)c2cc1OCCOC` ) = 0.28
